test system: 922993-354-T-J3-PDC complex spheroid viability; assay: Anticancer human tumor 922993-354-T-J3-PDC patient-derived endometrial carcinoma cell line growth inhibition [POLQ]; details: second compound 10 µM; first compound 10 µM; active compounds read low;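 also: spheroids exposed to the agents for one week; 100% = DMSO vehicle control wells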
RESULT_TYPE: viability, T/C (%)
State just the number; it will be interpreted in %.

Please review the entries below; each comes with its answer.
| COMPOUND | MEASURED_ON | viability, T/C (%) |
| --- | --- | --- |
| COc1cc(C2c3cc4c(cc3C(OC3OC5COC(C)OC5C(O)C3O)C3COC(=O)C23)OCO4)cc(OC)c1O (stereo not drawn) + Cc1cccc(N(C)C(=O)C2C(O)CCN2c2nc(C)cc(C(F)(F)F)c2C#N)c1 | 922993-354-T-J3-PDC complex spheroid viability | 21.6 |
| C=CC(=O)N1CCN(c2nc(=O)n(-c3c(C)ccnc3C(C)C)c3nc(-c4c(O)cccc4F)c(F)cc23)C(C)C1 (stereo not drawn) + Cc1cccc(N(C)C(=O)C2C(O)CCN2c2nc(C)cc(C(F)(F)F)c2C#N)c1 | 922993-354-T-J3-PDC complex spheroid viability | 112 |

// below: viability, T/C requested for another compound
// query Which viability, T/C value is on record for O=C(c1cc(Cc2n[nH]c(=O)c3ccccc23)ccc1F)N1CCN(C(=O)C2CC2)CC1 + Cc1cccc(N(C)C(=O)C2C(O)CCN2c2nc(C)cc(C(F)(F)F)c2C#N)c1 ?
// result 103
